Target: human PDHK2 (hPDHK2) (Homo sapiens (Human))
Experiment: Inhibitory action of PDHK activity in vitro (kinase reaction, residual PDH activity measured)
Assay type: biochemical
Conditions: PDHK inhibitory activity, class symbol of IC50
Protocol: In the case of human PDHK2 (hPDHK2, Genbank Accession No. NM_002611), modified hPDHK2 cDNA wherein FLAG-Tag sequence is added to the N terminal by a polymerase linkage reaction was prepared based on hPDHK2 cDNA clone (pReceiver-M01/PDK2-GeneCopoeia), and cloned into a vector (pET17b-Novagen). The recombinant construct was transformed into Escherichia coli (DH5α-TOYOBO). The recombinant clones were identified, plasmid DNA was isolated and subjected to the DNA sequence analysis. […]
pIC50: −log10 of the molar value.
pIC50 for assorted molecules

Give pIC50 for CNC(=O)c1ccc2c(c1)C(O)(C(F)(F)F)c1ccccc1-2 (stereo not shown) < 6.00

Give pIC50 for O=C(O)c1ccccc1-c1ccc2c(c1)C(O)(C(F)(F)F)c1ccccc1-2 (stereo not shown) < 6.00

Give pIC50 for OC[C@H](O)Cn1cc(-c2cc(F)cc3c2-c2ccccc2C3(O)C(F)(F)F)cn1 (single isomer, unassigned) > 7.00

Give pIC50 for COC(=O)c1cccc2c1-c1ccc(F)cc1C2(O)C(F)(F)F (stereo not shown) < 6.00

Give pIC50 for CCC(=O)N1CCN(c2ccc3c(c2)C(O)(C(F)(F)F)c2ccccc2-3)CC1 (stereo not shown) 6.00 to 7.00

====

IC50 for assorted compounds
Biological target: human PDHK2 (hPDHK2) (Homo sapiens (Human))
Assay: Inhibitory action of PDHK activity in vitro (kinase reaction, residual PDH activity measured)
Format: biochemical
Settings: read-out: PDHK inhibitory activity IC50

Example entries and their recorded answers appear below.
{"compound": "Cc1ccncc1-c1cccc2c1-c1ccccc1C2(O)C(F)(F)F (stereo not drawn)", "system.tested": "human PDHK2 (hPDHK2) (Homo sapiens (Human))", "data.value": "> 10 µM"}
{"compound": "Cc1cc(C(=O)N2CCC2)cc2c1-c1ccccc1C2(O)C(F)(F)F (single isomer, unassigned) [compound 135]", "system.tested": "human PDHK2 (hPDHK2) (Homo sapiens (Human))", "data.value": "> 1 µM"}

Note: attention shifts to another entry.
Give IC50 for NC(=O)c1ccccc1-c1ccc2c(c1)C(O)(C(F)(F)F)c1ccccc1-2 (stereo not drawn) > 10 µM

====

Molecular target: human PDHK2 (hPDHK2) (Homo sapiens (Human))
Test: Inhibitory action of PDHK activity in vitro (kinase reaction, residual PDH activity measured)
Assay type: biochemical
Conditions: read-out: PDHK inhibitory activity IC50
readout.label: IC50 (nM)
Numbers only; they are read as nM.

{"molecule": "Oc1cccc2c1-c1ccccc1C2(O)C(F)(F)F (stereo not drawn) [compound 63]", "system.tested": "human PDHK2 (hPDHK2) (Homo sapiens (Human))", "IC50 / nM": 8480}
{"molecule": "CC1CCN(c2ccc3c(c2)C(O)(C(F)(F)F)c2ccccc2-3)C1 (stereo not drawn) [compound 269]", "system.tested": "human PDHK2 (hPDHK2) (Homo sapiens (Human))", "IC50 / nM": 1340}
{"molecule": "CC(C)(Cn1cc(-c2cc(F)cc3c2-c2ccccc2C3(O)C(F)(F)F)cn1)C(=O)O (single isomer, unassigned) [compound 607]", "system.tested": "human PDHK2 (hPDHK2) (Homo sapiens (Human))", "IC50 / nM": 45}
{"molecule": "O=C(c1ccc2c(c1)C(O)(C(F)(F)F)c1ccccc1-2)N1CCCCC1 (stereo not drawn) [compound 52]", "system.tested": "human PDHK2 (hPDHK2) (Homo sapiens (Human))", "IC50 / nM": 4010}

Give IC50 for CN(C)C(=O)c1ccc(-c2ccc3c(c2)C(O)(C(F)(F)F)c2ccccc2-3)cc1 (stereo not drawn) [compound 192] 182

Give IC50 for NC(=O)Cn1cc(-c2cccc3c2-c2ccccc2C3(O)C(F)(F)F)cn1 (stereo not drawn) [compound 493] 39

Give IC50 for CCn1cc(-c2cccc3c2-c2ccccc2C3(O)C(F)(F)F)cn1 (stereo not drawn) [compound 347] 88

Give IC50 for OC1(C(F)(F)F)c2ccccc2-c2ccc(OC3CCCCC3)cc21 (stereo not drawn) [compound 260] 2810

Give IC50 for CC(C)C(=O)Nc1ccc2c(c1)-c1ccccc1C2(O)C(F)(F)F (stereo not drawn) [compound 101] 10300

Give IC50 for COC(=O)c1ccc(-c2ccc3c(c2)C(O)(C(F)(F)F)c2ccccc2-3)cc1Cl (stereo not drawn) [compound 236] 355

Give IC50 for COCCOC1CN(C(=O)c2ccc3c(c2)C(O)(C(F)(F)F)c2ccccc2-3)C1 (stereo not drawn) [compound 106] 461
